# system.under.test: NADPH oxidase 2 (Homo sapiens)
# assay.notes: compounds shifting NOX2 Amplex Red fluorescence – cell-based, HEK293-NOX2, PMA-stimulated, NOX inhibitor project, primary screen (AID 1159); further: test concentration not given here
# measurement.context: 45 min, higher = more signal, called active from +8 up or from −8 down
Activity calls are given as the source filed them.
measure.name: z-score

Some solved cases for reference:
>>> measured("CC(C)C[C@H]1NC(=O)[C@H](C)NC(=O)[C@@]23C(=O)N[C@@H](Cc4ccccc4)C2[C@H](C)[C@@]2(C)O[C@H]2C3/C=C/C/C=C\\CNC1=O (some centres undefined)")
"-0.232 (inactive)"
>>> measured("C=CC[C@@]1(C(=O)NCC(O)CO)N=C(c2ccc(OCCCO)cc2)O[C@@H]1c1ccccc1 (some centres undefined)")
"0.325 (inactive)"
>>> measured("CCCCCCCCCCC(O)C1C=CC2C(=O)NC(=O)C2N1Nc1ccccn1 (centres undefined)")
"-2.33 (inactive)"

Request: Which z-score reading was recorded for the compound COc1ccccc1CN1C(=O)c2ccccc2[C@@]2(Cc3ccccc3N(C3CC3)C2=O)[C@@H]1c1ccc(CO)cc1 ?
Result: -0.161 (inactive)

====

# assay.notes: COS7 lysate on small-molecule microarray, probe aHis, 635 nm (AID 1123);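 further: z-score combines 667nm fluorescence intensity with signal-to-noise per printed compound spot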
# measurement.context: COS7 cell lysate, fluorescence, higher = more signal
Given measured composite z-score, output satisfied if it is greater than or equal to 0.7 and not satisfied if not.

Illustrative cases are given below, each with its answer.
>>> label_value("COC(=O)[C@@]1(Cc2ccc(OC)cc2)[C@H]2c3cc(C(=O)N4CCCC4)n(Cc4ccc(C)o4)c3C[C@H]2CN1C(=O)c1ccccc1")
"satisfied"
>>> label_value("COCCOC(=O)N1C(=O)[C@@]2(c3cc(C#CCC(C(=O)OC)C(=O)OC)ccc31)[C@H](c1ccc(OCCO)cc1)N1[C@H](c3ccccc3)[C@H](c3ccccc3)OC(=O)[C@H]1[C@@H]2C(N)=O")
"satisfied"
>>> label_value("CCCNC(=O)[C@@H]1c2ccccc2C(=O)N(CC23CC4CC(CC(C4)C2)C3)[C@H]1c1ccc(CO)cc1")
"satisfied"
>>> label_value("CC1CC/C=C\\[C@H]2OC34C=CCN(Cc5ccccc5)C(=O)[C@H]3N(CCO)C(=O)[C@@H]4C2C(=O)O1 (some centres undefined)")
"not satisfied"
>>> label_value("NC(=O)NCC#Cc1ccc2c(c1)[C@]1(C(=O)N2)[C@H](c2ccc(OCCO)cc2)N2[C@H](c3ccccc3)[C@H](c3ccccc3)OC(=O)[C@H]2[C@@H]1C(=O)N1CCN(c2ncccn2)CC1")
"satisfied"

Moving on to another compound below.
Request: Is reported composite z-score greater than or equal to 0.7 here: CCN(CC)c1ccc(N2CC=CC34O[C@@H]5/C=C\CCCOC(=O)C5[C@H]3C(=O)N(CCCCCO)[C@@H]4C2=O)cc1 (some centres undefined)
Result: not satisfied

====

# assay.notes: probe aCHRDL2 binding to arrayed compounds – biochemical, biotinylated probe, 635/667 nm fluorescence, primary screen (AID 1100)
# measurement.context: small-molecule microarray, higher = more signal
Assign composite z-score to each entry below.
Numbers only.

>>> measured("CC1CC/C=C\\[C@H]2OC34C=CCN(c5ccc(Cl)cc5)C(=O)[C@H]3N(C(CO)C(C)C)C(=O)[C@]4(C)C2C(=O)O1 (stereo partly drawn)")
0.281
>>> measured("CC(C)c1ccc(NN2C(C(O)c3ccccn3)C=CC3C(=O)N(c4ccccc4)C(=O)C32)cc1 (stereo not drawn)")
0.105
>>> measured("CCCCC=C[C@@H](NC(=O)CCc1ccccc1)c1ccccc1")
-0.0262

Could you report composite z-score for every entry in the following list?
1. O=C(CS)NCCCCCNC(=O)[C@@H]1C[C@@H]2C(=O)N3CCC[C@H]3C(=O)N2[C@@H]1c1ccc(O)cc1
2. CC1(C)[C@@H]2CC(C(O)C3C=CC4C(=O)N(c5ccccc5)C(=O)C4N3Nc3ccccc3F)=C[C@@H]1C2 (stereo partly drawn)

Result:
0.61
0.471
